- Protocol Summary: Pharmacokinetics in mouse after p.o. and i.v. administration
- Assay type: in vivo
- Reported Conditions: C57BL/6J, mouse, in vivo, iv, 2 mg/kg, mouse 2mg/kg i.v.; individual animals 4-6
Recorded Endpoint: half-life (h)
Give bare numbers, in h.

Inquiry: # half-life lookup, item "CN(C)CCCCn1c(=O)c2c(nc(Oc3cccc(Cl)c3)n2Cc2ccc(Cl)cc2)n(C)c1=O"
Reply text: 3.52

---

- Protocol Summary: Pharmacokinetics in mouse after p.o. and i.v. administration
- Format: in vivo
- Reported Conditions: C57BL/6J, mouse, in vivo, po, 10 mg/kg, mouse 10mg/kg p.o.; Mean
Recorded Endpoint: AUC(0-t)
Kindly report the value followed by its unit.

Inquiry: # AUC(0-t) lookup, item "CN(C)CCCCn1c(=O)c2c(nc(Oc3cccc(Cl)c3)n2Cc2ccc(Cl)cc2)n(C)c1=O"
Reply text: 1190 ng·h/mL
